Please go through the items and note down their Ki.
molecular target: PSG G322A G335A (PSD-95); experiment: FP displacement (competition) of FITC-15 AA CRIPT by library peptide, IC50 and Ki; details: read-out: Ki (µM), PSG G322A G335A; FP displacement of FITC-15 AA CRIPT probe by PSD library peptide; protein PSG G322A G335A
One number for each entry, in µM.

compound | display.unit | Ki
CC[C@H](C)[C@H](NC(=O)[C@H](CCCCN)NC(=O)[C@@H]1CCCN1C(=O)[C@H](CC(C)C)NC(=O)[C@H](CCCNC(=N)N)NC(=O)[C@H](Cc1c[nH]cn1)NC(=O)[C@H](CO)NC(=O)CNC(=O)[C@H](CC(=O)O)NC(=O)[C@H](Cc1ccc(O)cc1)NC(C)=O)C(=O)N[C@@H](CCCCN)C(=O)N[C@@H](CCC(=O)O)C(=O)N[C@H](C(=O)N[C@H](C(=O)N[C@H](C(=O)O)C(C)C)[C@@H](C)O)[C@@H](C)O [FRPD4] | µM | 0.777
CC[C@H](C)[C@H](NC(=O)[C@H](CCC(=O)O)NC(=O)[C@@H](NC(=O)[C@H](CO)NC(=O)[C@H](CCC(=O)O)NC(=O)[C@@H](NC(=O)[C@H](CCCNC(=N)N)NC(=O)[C@H](CCC(=O)O)NC(=O)[C@H](CC(C)C)NC(=O)[C@H](CCCNC(=N)N)NC(=O)[C@H](CO)NC(=O)[C@@H]1CCCN1C(=O)[C@@H](NC(=O)[C@H](Cc1c[nH]c2ccccc12)NC(=O)[C@H](Cc1ccc(O)cc1)NC(C)=O)[C@@H](C)O)[C@@H](C)CC)[C@@H](C)O)C(=O)O [LZTS3] | µM | 229
CC(=O)N[C@@H](Cc1ccc(O)cc1)C(=O)N[C@@H](CCCNC(=N)N)C(=O)N[C@@H](CCC(N)=O)C(=O)N1CCC[C@H]1C(=O)N[C@@H](CC(C)C)C(=O)N1CCC[C@H]1C(=O)N[C@@H](CC(=O)O)C(=O)N[C@@H](CO)C(=O)N[C@@H](CC(N)=O)C(=O)N1CCC[C@H]1C(=O)N[C@@H](CCC(=O)O)C(=O)N[C@@H](CCC(=O)O)C(=O)N[C@@H](CO)C(=O)N[C@@H](CO)C(=O)N[C@H](C(=O)O)C(C)C [SEM4C] | µM | 51

Respectfully, I request Ki for each entry included below.
1. CC(=O)N[C@@H](Cc1ccc(O)cc1)C(=O)N[C@@H](Cc1c[nH]cn1)C(=O)N1CCC[C@H]1C(=O)N[C@@H](Cc1c[nH]cn1)C(=O)N1CCC[C@H]1C(=O)N[C@@H](Cc1c[nH]cn1)C(=O)N1CCC[C@H]1C(=O)N[C@@H](Cc1c[nH]cn1)C(=O)N[C@@H](CO)C(=O)N[C@@H](Cc1c[nH]cn1)C(=O)N[C@@H](CO)C(=O)N[C@H](C(=O)N[C@H](C(=O)N[C@@H](CCCNC(=N)N)C(=O)N[C@H](C(=O)O)C(C)C)[C@@H](C)O)[C@@H](C)O [NLGN1]
2. CC[C@H](C)[C@H](NC(=O)[C@H](CCC(=O)O)NC(=O)[C@@H](NC(=O)[C@H](C)NC(=O)[C@@H](NC(=O)[C@@H](NC(=O)[C@H](CC(=O)O)NC(=O)[C@H](CCC(=O)O)NC(=O)[C@H](Cc1ccc(O)cc1)NC(=O)[C@@H]1CCCN1C(=O)[C@@H](NC(=O)[C@H](CC(=O)O)NC(=O)[C@H](C)NC(=O)CNC(=O)[C@H](Cc1ccc(O)cc1)NC(C)=O)[C@@H](C)CC)[C@@H](C)CC)[C@@H](C)CC)[C@@H](C)O)C(=O)O [LZTS1]

Data returned:
1. 7.42
2. 388
